assay_system: Na^+ /H^+ exchanger of rabbit erythrocytes (Oryctolagus cuniculus)
Construct: determine the Na^+ influx into the erythrocytes via Na^+ /H^+ exchange by flame photometry; endogenous in cells
Sequence (P23791 whole entry): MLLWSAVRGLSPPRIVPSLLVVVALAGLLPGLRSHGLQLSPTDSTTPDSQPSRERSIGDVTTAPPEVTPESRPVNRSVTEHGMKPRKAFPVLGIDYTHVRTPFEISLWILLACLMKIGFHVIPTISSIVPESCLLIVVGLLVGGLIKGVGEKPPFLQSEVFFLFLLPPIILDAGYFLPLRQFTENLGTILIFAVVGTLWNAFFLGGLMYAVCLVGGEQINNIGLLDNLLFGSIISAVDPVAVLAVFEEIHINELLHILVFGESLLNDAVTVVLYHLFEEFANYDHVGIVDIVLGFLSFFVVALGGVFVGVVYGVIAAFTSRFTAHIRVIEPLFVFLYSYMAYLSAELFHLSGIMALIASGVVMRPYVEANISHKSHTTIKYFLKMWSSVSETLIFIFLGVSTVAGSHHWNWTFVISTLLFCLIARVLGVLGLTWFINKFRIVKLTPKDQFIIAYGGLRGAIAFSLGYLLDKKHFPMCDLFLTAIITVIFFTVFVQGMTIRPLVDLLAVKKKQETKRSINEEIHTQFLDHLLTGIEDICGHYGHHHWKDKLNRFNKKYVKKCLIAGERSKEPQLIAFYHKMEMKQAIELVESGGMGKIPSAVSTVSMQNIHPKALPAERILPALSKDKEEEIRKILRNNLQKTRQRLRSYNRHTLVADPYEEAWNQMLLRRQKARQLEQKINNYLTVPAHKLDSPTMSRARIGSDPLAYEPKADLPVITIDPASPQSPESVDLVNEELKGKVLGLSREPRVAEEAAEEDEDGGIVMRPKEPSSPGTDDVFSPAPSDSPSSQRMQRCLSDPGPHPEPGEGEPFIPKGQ
method_summary: Inhibition of the Na^+ /H^+ exchanger of rabbit erythrocytes (amiloride-sensitive Na^+ influx, flame photometry)
conditions_used: hyperosmolar salt-sucrose medium, pH 7.4, 37° C., sodium influx by flame photometry
Structures can show the parent of a compound that is named as a salt.
Please respond with reported IC50 for every item in the list.
Just the number in µM, nothing appended.

Output IC50 of CS(=O)(=O)c1cc(C(=O)N=C(N)N)ccc1NS(=N)(=O)c1ccc(F)cc1 (stereo not shown) [Example 3]
2000

Output IC50 of CN=S(=O)(NC)c1cc(C(=O)N=C(N)N)ccc1C(C)C (stereo not shown) [Example 4]
6000

Output IC50 of CCN=S(=O)(c1ccc(F)cc1)N(CC)c1ccc(C(=O)N=C(N)N)cc1C(F)(F)F (stereo not shown) [Example 2, dihydrochloride]
53

Output IC50 of CCN=S(=O)(c1ccc(F)cc1)N(CC)c1ccc(C(=O)N=C(N)N)cc1S(C)(=O)=O (stereo not shown) [Example 1, dihydrochloride]
680
